Test system: HepG2 cells
PROCEDURE DETAILS: HepG2 cytotoxicity assay
DETAILS: read-out: HepG2 cytotoxicity assay IC50; dose response confirmation
pIC50: −log10 of the molar value.
Would you please tag the item y when its pIC50 is 5 or above, and n when it is below?

[ask] // inclusive: pIC50 at least 5? input: NCC(NC(=O)c1ccc(-c2c[nH]c3ncccc23)s1)c1ccccc1.O=CO (centres unmarked) [TCMDC-134154]
[reply] n

[ask] Follow-up item: COc1cc(Cn2ccc3c4c(N)nc(N)nc4ccc32)cc(OC)c1OC [TCMDC-137341]
[reply] y

[ask] Now this one: Cc1[nH]c(C)c(-c2ccc(OCc3ccccc3C(F)(F)F)nc2)c(=O)c1Br [TCMDC-135796]
[reply] y

[ask] Try the compound COc1ccc2nccc(N3CCC(NCCNCc4ccc5c(n4)NC(=O)CO5)C3)c2n1.Cl (centres unmarked) [TCMDC-134548]
[reply] n

[ask] Next entry: Cc1ccc(C)c(CC(=O)N2CCC(n3c(C)nc4ccc(F)cc43)CC2)c1 [TCMDC-124790]
[reply] n

====

Tested on: P. berghei ookinete development
DETAILS: primary screen at 1 μM, replicate A
Binary call on % inhibition, Replicate A: label 1 from 70% upward, label 0 beneath that.

[ask] Dear colleague, could you confirm whether C=Cc1ccc(-c2c(C)[nH]c(C)c(Br)c2=O)cc1 [TCMDC-135433] has % inhibition, Replicate A at or above 70%?
[reply] label 0

[ask] For COc1ccc2nccc([C@@H](O)CN3CCC(NCc4cc5ccccc5nc4O)CC3)c2c1.Cl [TCMDC-140759] then?
[reply] label 0

[ask] Also Cc1[nH]c(C)c(-c2ccc(CCc3ccc(N)cc3)cc2)c(=O)c1Cl [TCMDC-135678] ?
[reply] label 0

[ask] And the next one, Cc1nc(C)c(-c2ccc(Oc3ccc(OC(F)(F)F)cc3)cc2)c(OC(=O)c2ccc(CN(C)C)cc2)c1Cl [TCMDC-137382] ?
[reply] label 1

[ask] And Cc1[nH]c(C)c(-c2ccc(Oc3ccc(C(F)(F)F)cc3)cc2)c(=O)c1Br [TCMDC-137406] ?
[reply] label 1

[ask] Also need C=CCn1ccc2c3c(N)nc(N)nc3ccc21 [TCMDC-137995] , thanks.
[reply] label 1

[ask] Entry CC(C)COc1ccc(Cl)cc1Cc1ccc(-c2nc3cnc4ccccc4c3[nH]2)o1 [TCMDC-136650] please
[reply] label 0

====

Test system: P. falciparum female gametocytes
PROCEDURE DETAILS: P. falciparum female gametogenesis assay (Pf FGAA)
DETAILS: 1: YES; 0: NO
RESULT TYPE: Is compound selective in assay? Pf FGAA active?

[ask] Field: Is compound selective in assay? Pf FGAA active? (P. falciparum female gametocytes). Entry: C=CCc1cccc(CN2CCC(c3cc(=O)[nH]c(-c4ccccn4)n3)CC2)c1O
[reply] 0 (0: NO)

[ask] Param item: Clc1ccc(-c2csc3ncnc(Cl)c23)cc1
[reply] 1 (1: YES)

[ask] What would you report for CN(C)c1ccc(-c2csc(C(=O)NCC3CCN(Cc4cccc(C(F)(F)F)c4)C3)c2)cc1.O=C(O)C(F)(F)F (centres unmarked) ?
[reply] 0 (0: NO)

[ask] Same read-out for Cn1c(Sc2ncnc3sccc23)nc2ccccc21 ?
[reply] 1 (1: YES)

[ask] Now the compound CC(C)C1=CC(=NOS(=O)(=O)c2ccccc2)C=C(C(C)C)C1=O
[reply] 1 (1: YES)

[ask] Next compound: COc1cc2nc(N3CCN(C(=O)c4c(Cl)nsc4-c4ccccc4Cl)CC3)nc(N)c2cc1OC.O=C(O)C(F)(F)F
[reply] 0 (0: NO)

[ask] Try this compound next: COc1ccc(OC)c(-c2cccc(-c3cccc(NC(=O)c4ccc([N+](=O)[O-])o4)c3)n2)c1
[reply] 0 (0: NO)

[ask] Another compound: Br.Oc1ccc(CCNCCCCCCNCCc2ccc(-c3ccccc3)cc2)cc1O
[reply] 0 (0: NO)

====

Test system: P. falciparum female gametocytes
PROCEDURE DETAILS: P. falciparum female gametogenesis assay (Pf FGAA)
DETAILS: 1: YES; 0: NO
RESULT TYPE: Is compound selective in assay? Pf FGAA active?

[ask] # value lookup — system P. falciparum female gametocytes, readout Is compound selective in assay? Pf FGAA active?, item COc1ccc2ccccc2c1CCCCN1CCN(CC(c2ccc(F)cc2)N2CCC2)CC1.O=C(O)C(F)(F)F (stereo not shown) [TCMDC-135867]
[reply] 0 (0: NO)

[ask] What about this compound? Br.Oc1ccc(CCNCCCCCCNCCc2ccc(Cl)c3ccccc23)cc1O [TCMDC-131271]
[reply] 0 (0: NO)

[ask] Now this one: CC(C)(C)c1ccc(CN2CCC(CNC(=O)c3cc(-c4cccc(C(F)(F)F)c4)cs3)C2)cc1.O=C(O)C(F)(F)F (stereo not shown) [TCMDC-134442]
[reply] 0 (0: NO)

[ask] Now the same for COc1ccc(NC(=O)Nc2ccc(Nc3nc(C)cc(N4CCCC4)n3)cc2)cc1 [TCMDC-124958]
[reply] 1 (1: YES)

[ask] Quick one: CS(=O)(=O)O.FC(F)(F)COc1ccc2ccccc2c1CNCCCCCCNCc1c(OCC(F)(F)F)ccc2ccccc12 [TCMDC-137816]
[reply] 0 (0: NO)

[ask] For COc1ccc(N2CCN(CCCCNCc3ccc(NC(=O)c4cc(Cl)cc(Cl)c4)cc3)CC2)c(OC)c1 [TCMDC-138226] then?
[reply] 0 (0: NO)

[ask] Quick one: Cn1c(Nc2cc(C(C)(C)C)on2)nc2cc(Nc3ccnc(Nc4cccc(S(=O)(=O)N5CCOCC5)c4)n3)ccc21 [TCMDC-134098]
[reply] 0 (0: NO)

====

Tested on: HepG2 cells
PROCEDURE DETAILS: HepG2 cytotoxicity assay
DETAILS: read-out: HepG2 cytotoxicity assay IC50; dose response confirmation
RESULT TYPE: pIC50
Convention used: pIC50 is expressed as -log10 of the molar concentration.

[ask] Form field: pIC50 recorded for Nc1nc(N)c2c(ccc3c2ccn3CCCCO)n1 with HepG2 cells (enter value)
[reply] 7.12

[ask] Try the compound COc1ccc2nccc([C@@H](O)CN3CCC(NCCOc4ccc(F)cc4Cl)CC3)c2c1.O=C(O)C(=O)O
[reply] 4.49

[ask] Can you handle COc1ccc(CCc2ccc(-c3c(C)[nH]c(C)c(Cl)c3=O)cc2)cc1OC next?
[reply] 4.00

[ask] Next compound up: CCOC(=O)N1CCN(CCCCNc2c3ccc(Cl)cc3nc3ccc(OC)cc23)CC1.Cl
[reply] 5.26

[ask] Same lookup for COc1ccc(C[C@H]2NC[C@H](O)[C@H]2OC(C)=O)cc1 , please.
[reply] 5.64

[ask] Please answer likewise for O=C(c1ccco1)N1CCN(c2ccc([N+](=O)[O-])c(NC3CC3)c2)CC1
[reply] 5.69

[ask] Moving on to the next compound: CC(=O)Oc1c(Br)c(C)nc(C)c1-c1ccc(Oc2ccc(OC(F)(F)F)cc2)cc1
[reply] 5.00

[ask] Same read-out for Cc1[nH]c(C)c(-c2ccc(C(F)(F)F)cc2)c(=O)c1Br ?
[reply] 4.00

====

System: HepG2 cells
PROCEDURE DETAILS: HepG2 cytotoxicity assay
DETAILS: HepG2 values of the three screens unified
t means recorded Unified cytotox is 40 µM or above; f means it is below 40 µM.

[ask] Does Nc1nc(N)c2c(ccc3c2ccn3CCCC(F)(F)F)n1 [TCMDC-138622] have a reported Unified cytotox of at least 40 µM?
[reply] f

[ask] # repeat for CCCC(C)n1ccc2c3c(N)nc(N)nc3ccc21 (centres unmarked) [TCMDC-137964]
[reply] f

[ask] Then COc1ccc(C#Cc2ccc(-c3c(C)[nH]c(C)c(Cl)c3=O)cc2)cc1 [TCMDC-135655] ?
[reply] t

[ask] Could you do the same for COc1ccc2ncc(Cl)c(CCN3CCC(NCc4ccc5c(n4)NC(=O)CS5)CC3)c2c1.Cl [TCMDC-141807] , please?
[reply] f

[ask] Next molecule: CCOc1ccc(-c2nonc2NC(=O)c2cccc(Cl)c2)cc1OCC [TCMDC-125200]
[reply] f

[ask] Entry CC(C)(CNC(=O)[C@H]1CCCCN1)c1nc(-c2ccc(Cl)c(O)c2)c(-c2ccncc2)[nH]1.Cl [TCMDC-141070] please
[reply] t

[ask] Also, Cc1cc(=O)c(-c2cccc(Oc3ccc(Cl)cc3)c2)c(C)[nH]1 [TCMDC-137415] please.
[reply] f

====

System: P. berghei ookinete development
DETAILS: primary screen at 1 μM, replicate A
RESULT TYPE: % inhibition, Replicate A (%)
# value in %; strip the unit string

[ask] Quick check: % inhibition, Replicate A of Cc1ccc(S(=O)(=O)N(CCCNCc2cccc(O)c2)c2ccccc2)cc1 ?
[reply] 53.17

[ask] Also Cc1cc(=O)c(-c2ccc(Oc3cccc(OC(F)(F)F)c3)cc2)c(C)[nH]1 , if possible.
[reply] 74.10

[ask] And the next one, CCC(CC)n1cc2c(ccc3nc(N)nc(N)c32)n1 ?
[reply] 5.46

[ask] Moving on to COc1ccc2ncc(F)c(NC(=O)C3CCC(NCc4cc5cc(F)cc(F)c5[nH]4)CC3)c2n1.Cl (stereo not shown)
[reply] 109.55
